# target_or_test_system: Human immunodeficiency virus type 1 protease (Human immunodeficiency virus 1, UniProt Q72874)
measure: Ki (µM)

>  <compound>
COc1ccc(CN[C@@H](C(=O)N[C@H](C(=O)NCc2nc3ccccc3[nH]2)C(C)C)[C@H](O)[C@H](Cc2ccccc2)NC(=O)OC(C)(C)C)cc1

>  <numeric_readout>
0.00776

$$$$

P: CC(C)(C)[C@H](NC(=O)OCc1ccccc1)C(=O)N[C@@H](Cc1ccccc1)[C@@H](O)[C@@H](NCc1ccccc1)C(=O)N[C@@H]1c2ccccc2CC1O (stereo partly specified)
Q: CC(C)[C@H](NC(=O)OCc1ccccc1)C(=O)N[C@@H](Cc1ccccc1)[C@@H](O)[C@@H](NCc1ccccc1)C(=O)N[C@H](C(=O)OCc1nc2ccc([N+](=O)[O-])cc2[nH]1)C(C)C
R: CC(C)(C)[C@H](NC(=O)OCc1ccccc1)C(=O)N[C@@H](Cc1ccccc1)[C@@H](O)[C@@H](NCc1ccc(OCCO)cc1)C(=O)N[C@H]1c2ccccc2CC1O (stereo partly specified)
S: CC(C)(C)[C@H](NC(=O)OCc1ccccc1)C(=O)N[C@@H](Cc1ccccc1)[C@@H](O)[C@@H](NCc1ccc(OCCN2CCOCC2)cc1)C(=O)N[C@H](CO)c1ccccc1 (stereo in doubt; 283268)
Q. Ranking field: Ki; order: falling. # answer = labels listed in requested order
A. P, S, Q, R
(P: 1.58 µM, S: 0.1 µM, Q: 0.0302 µM, R: 0.0158 µM)

1: CC(C)[C@H](NC(=O)[C@H](NCc1ccccc1)[C@H](O)[C@H](Cc1ccccc1)NC(=O)[C@@H](NC(=O)OCC1c2ccccc2-c2ccccc21)C(C)(C)C)C(=O)NCc1ccccc1
2: COc1ccc(CN[C@@H](C(=O)N[C@H](C(=O)Nc2nc3ccccc3s2)C(C)C)[C@H](O)[C@H](Cc2ccccc2)NC(=O)[C@@H](NC(=O)OCc2ccccc2)C(C)C)cc1
3: CC(C)[C@H](NC(=O)[C@H](NCc1ccccc1)[C@H](O)[C@H](Cc1ccccc1)NC(=O)[C@@H](NC(=O)OC(C)(C)C)C(C)(C)C)C(=O)NCc1ccccc1
Q. Ranking field: Ki; order: falling. # answer = labels listed in requested order
A. 3, 1, 2
